EXPERIMENTAL_PROTOCOL: NCI Yeast Anticancer Drug Screen. Data for the cln2 rad14 strain (AID 165);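 note: 0% = growth equal to vehicle treated cultures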
TEST_CONTEXT: S. cerevisiae cln2 rad14 strain, at 50.0 µM, hits give high values
Compounds without any hit were thinned out: in the full panel of roughly 79,000, 15% have a hit. The source made the active and inactive calls. Cut-off read from the data, not from the text of the source: active = growth inhibition above about 70%; inactive = the rest.
PROPERTY_MEASURED: growth inhibition

Q. Look at this compound and give its reported growth inhibition. CCOC(=O)C(O)(NC(=O)Nc1ccc(F)cc1)C(F)(F)F (stereo not given)
A. -35.9% (inactive)

Q. # growth inhibition lookup, item `NC(=O)N/N=C/c1ccc(O)cc1`
A. -11.1% (inactive)

Q. # get_value(readout='growth inhibition', item= O=P1(C(c2ccccc2)c2ccccc2)OC2CC(Cl)CC(C2)O1 (stereo not given) )
A. -46.8% (inactive)

Q. Field request: growth inhibition | item: O=C(Nc1ccccc1C(=O)O)C(=O)C(C(=O)c1ccccc1-c1ccccc1)C1OC(=O)c2ccccc21 (stereo not given)
A. -38.6% (inactive)

Q. Requested field: growth inhibition. Item: `OCCc1nccnn1`
A. -1.35% (inactive)

Q. Reported growth inhibition for `CC1=C(C(=O)NNC(=O)C[N+](C)(C)C)CC(C(=O)NNC(=O)C[N+](C)(C)C)=C(C)N1` : what is it?
A. -31.2% (inactive)

Q. Please give the measured growth inhibition for this compound: `CCOc1cccc(/C=N/N=C2\C(=O)Nc3c(Cl)cc(Cl)cc32)c1O`
A. 40.8% (inactive)

Q. Which growth inhibition reading was recorded for the compound `CON(C)C(C#N)=C(C#N)C#N` ?
A. 7.05% (inactive)

Q. Please look up its growth inhibition: COc1ccc(C(SCC(N)C(=O)O)(c2ccccc2)c2ccccc2)cc1 (stereo not given)
A. -42.4% (inactive)

Q. Field request: growth inhibition | item: `CCCCCCCCCCC(CCCCCCCCCC)=NN=C(CCCCCCCCCC)CCCCCCCCCC`
A. 25.9% (inactive)

Q. Dear colleague, I am looking for the recorded growth inhibition of the following compound: `CO/C=C/c1cc2c(cc1Br)OCO2`
A. 0.75% (inactive)

Q. Reported growth inhibition, compound O=C(/C=C/c1ccccc1)CC1OC(=O)c2ccccc21 (stereo not given) : ____
A. 23.1% (inactive)

Q. Which value of growth inhibition has been reported for `CS(=O)(=O)C(c1nc2n(c1O)/C(=N/C(=O)Nc1ccc(Cl)cc1)N=N2)c1nc2n(c1O)/C(=N/C(=O)Nc1ccc(Cl)cc1)N=N2` in the records?
A. -16.3% (inactive)

Q. I'd like to know its growth inhibition. The compound in question is COc1ccc(C2SCC(=O)N2c2nncs2)cc1F (stereo not given)
A. 2.9% (inactive)

Q. Given the entry `O=C(O)/C=C\C(=O)Nc1ccc2c(c1)-c1ccccc1C2` , report its measured growth inhibition.
A. -22.4% (inactive)

Q. # query: growth inhibition of entry CC1NC(=O)C2Cc3ccc(O)c(c3)Oc3cccc(c3)C(O)C(C(=O)N2C)N(C)C(=O)C(C)NC(=O)C(Cc2ccc(O)c(O)c2)N(C)C(=O)C(C)NC1=O (stereo not given)
A. 6.15% (inactive)

Q. I would be grateful if you could share the reported growth inhibition for CN1c2ccccc2SC1(C)CCC(=O)O (stereo not given) .
A. 6% (inactive)

Q. What value of growth inhibition has been recorded for this entry: `CC(C)CCC[C@@H](C)[C@H]1CC[C@H]2C3=CC=C4C[C@H](OC(=O)c5ccccc5)CC[C@]4(C)[C@H]3CC[C@]12C`
A. 3.7% (inactive)

Q. Would you kindly share the measured growth inhibition for `Nc1ccc(S(=O)(=O)O)c(N)c1` ?
A. -0.3% (inactive)

Q. Data request, read-out growth inhibition, for COc1cccc2c1C(=O)c1c(O)c3c(c(O)c1C2=O)C[C@@](O)(/C(C)=N\NC(=O)CCC(N)C(=O)O)C[C@@H]3OC1CC(N)C(O)C(C)O1 (stereo not given in full) (tested in a mixture with another compound)
A. -6.05% (inactive)
